# experimental_target: Stb4 (UniProt P50104)
# Sequence (P50104 whole entry): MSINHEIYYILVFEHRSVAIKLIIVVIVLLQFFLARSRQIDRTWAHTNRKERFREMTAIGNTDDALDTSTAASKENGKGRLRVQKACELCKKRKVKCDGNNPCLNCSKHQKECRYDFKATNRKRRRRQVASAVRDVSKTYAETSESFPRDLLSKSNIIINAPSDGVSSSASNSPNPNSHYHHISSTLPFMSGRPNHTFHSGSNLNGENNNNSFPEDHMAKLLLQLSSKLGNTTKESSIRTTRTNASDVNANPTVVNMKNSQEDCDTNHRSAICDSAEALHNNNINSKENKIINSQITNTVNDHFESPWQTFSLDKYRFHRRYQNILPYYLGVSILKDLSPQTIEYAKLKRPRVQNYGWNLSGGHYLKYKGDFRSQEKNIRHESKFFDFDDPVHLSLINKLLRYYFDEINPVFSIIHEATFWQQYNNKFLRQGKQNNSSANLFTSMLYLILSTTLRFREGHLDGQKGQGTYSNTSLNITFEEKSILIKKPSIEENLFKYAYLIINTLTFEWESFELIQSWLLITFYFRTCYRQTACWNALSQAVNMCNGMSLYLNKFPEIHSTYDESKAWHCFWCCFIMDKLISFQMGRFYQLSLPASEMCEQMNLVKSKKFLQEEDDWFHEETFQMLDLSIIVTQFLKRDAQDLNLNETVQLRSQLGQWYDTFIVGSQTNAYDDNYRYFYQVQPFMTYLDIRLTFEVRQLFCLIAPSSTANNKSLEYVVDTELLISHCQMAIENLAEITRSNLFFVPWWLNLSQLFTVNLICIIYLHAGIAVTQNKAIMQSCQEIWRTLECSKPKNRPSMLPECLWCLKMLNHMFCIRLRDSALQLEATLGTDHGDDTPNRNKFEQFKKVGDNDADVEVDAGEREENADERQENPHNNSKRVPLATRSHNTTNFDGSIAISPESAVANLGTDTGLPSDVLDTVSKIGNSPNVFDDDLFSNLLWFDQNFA
# test_name: PBM E-score (8-mer binding enrichment) (E-score (-0.5 to 0.5)); higher = stronger / more preferred TF binding
# reported_conditions: protein concentration: 200 nM; construct: GST-DNA-binding domain
The full ranking holds about 33,000 sequences; the median of “E-score (-0.5 to 0.5)” is about -0.056, and the highest 2% start at about 0.38. What follows is part of a selection rich in the highest values, with near analogues and random picks from the rest.
measured_metric: PBM E-score
Please give the numeric answer without any surrounding text.

So what's the measured PBM E-score for this one? CCTTAGTC
-0.155

ATAGCCGA , same question.
0.442

CGGGCCGC , same question.
0.309

CATATCCG , same question.
0.403

TTGCACAA , same question.
-0.231

CGACCCGA , same question.
0.4

AGTAAGCG , same question.
-0.0174

CAGACCTG , same question.
-0.17

GGGGACAA , same question.
0.109

CCTATCCC , same question.
0.176

TCGGGAAA , same question.
0.443

ACATATAA , same question.
-0.0928

CGGCCCGA , same question.
0.444

CAATCGTC , same question.
-0.187

CTCAAACC , same question.
-0.0373

GTAGCCAA , same question.
-0.025

GTAACCTA , same question.
0.0635

ACATCAAA , same question.
-0.0159

AGTATCCA , same question.
0.0731

CCGAACAG , same question.
0.4

ATCCGGTC , same question.
0.302

GCATCCGC , same question.
0.295

GCATCCTA , same question.
-0.163

TATCAAGA , same question.
-0.216

AATGTCTG , same question.
0.0612

AGTTAAAA , same question.
0.045

ACTATCCT , same question.
-0.0638

GGGTTTAA , same question.
0.0372

ATTCATTC , same question.
0.172

GGACCCGA , same question.
0.386

ATAGCCGG , same question.
0.353

CCGAACAA , same question.
0.425

ATCCGGAG , same question.
0.385

CCCGGAGC , same question.
0.32

CCTATCCG , same question.
0.391

CATATCCC , same question.
0.0584

TCTTCCAA , same question.
-0.0347

AACCGGGG , same question.
0.164

CGACCCTA , same question.
0.0884

ATCCCTTC , same question.
-0.183

GTAGCCGA , same question.
0.4

CCAAGTCC , same question.
-0.104

CGATTATC , same question.
0.15

ATCCGCAT , same question.
0.348

ATCCGGCG , same question.
0.368

ACGAACAG , same question.
-0.15

GATACCGA , same question.
0.291

CTGCAGTA , same question.
-0.353

ATGCGGAG , same question.
0.0793

ATAGCCGC , same question.
0.236

ACCGGATA , same question.
0.388

GTAACCCA , same question.
-0.0452

CGGACAAG , same question.
0.138

ATTATCCG , same question.
0.475

CGGGCCGA , same question.
0.435

TCATTGCA , same question.
-0.328

CGCGGAAG , same question.
0.357

AAAAGGAG , same question.
-0.0435

ATCCGGCC , same question.
0.394

AATATCCA , same question.
0.0783

ACTCCTTA , same question.
-0.0987

ATCCGGTA , same question.
0.322

ATCCGGAT , same question.
0.459

ACTATCCG , same question.
0.45

ATCCGGCA , same question.
0.38

CATATCCA , same question.
-0.178

ACACTGCG , same question.
0.00398

ACTAGGAC , same question.
-0.0716

CCGCAAGA , same question.
0.151

CCTCGCGC , same question.
-0.0639

CCGGTATA , same question.
0.214

CAAGAAAG , same question.
-0.0821

AGGCCCGA , same question.
0.233

CTTACCGA , same question.
0.393

AACGGAAC , same question.
0.348

CATACCGA , same question.
0.287

CTAGCCGA , same question.
0.455

ACGAACAA , same question.
0.079

CTAGCCGC , same question.
0.21

CAGGGGCG , same question.
-0.182

AGTATCCG , same question.
0.436

CGATTAAG , same question.
-0.128

GTAACCGA , same question.
0.386

ACCGGACA , same question.
0.128

GCACTTAC , same question.
0.0807

CCGGAAAG , same question.
0.366

GGACCCTA , same question.
-0.144

GTAGCCTA , same question.
-0.382

ACTGAAAT , same question.
-0.18

ACGGGACA , same question.
0.276

CCACTCTC , same question.
0.0625
